# SUBJECT OF TEST: T1, CD73 on the surface of human cells (human, UniProt P21589 27-549)
# T1 construct: whole, on cells; The cell line of each value is named under assay or readout; also called CD73 on the surface of tumor cells; CD73 enzyme on the surface of MDA-MB-231 cells
# T1 sequence (looked up): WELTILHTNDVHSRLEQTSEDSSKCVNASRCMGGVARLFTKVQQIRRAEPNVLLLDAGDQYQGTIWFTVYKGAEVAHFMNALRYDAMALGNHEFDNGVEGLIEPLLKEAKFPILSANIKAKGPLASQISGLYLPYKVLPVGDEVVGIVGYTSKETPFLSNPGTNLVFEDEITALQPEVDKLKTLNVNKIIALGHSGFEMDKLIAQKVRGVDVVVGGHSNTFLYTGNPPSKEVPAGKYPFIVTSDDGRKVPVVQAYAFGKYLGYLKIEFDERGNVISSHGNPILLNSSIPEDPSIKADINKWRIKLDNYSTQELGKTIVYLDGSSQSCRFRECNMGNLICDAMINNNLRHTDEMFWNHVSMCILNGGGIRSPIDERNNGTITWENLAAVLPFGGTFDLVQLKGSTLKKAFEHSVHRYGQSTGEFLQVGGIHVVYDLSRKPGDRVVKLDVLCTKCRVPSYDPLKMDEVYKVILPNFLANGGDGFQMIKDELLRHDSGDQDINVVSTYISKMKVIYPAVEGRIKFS
# PROCEDURE SUMMARY: flow cytometry on SW1573 cells
Would you mind telling me the reported EC50 of each entry?
Give bare numbers, in µg/mL.

- BINDER: "5-E11 derived antibody 5-E11ASCS (VHH) VHH: ALQLVESGGGLVQPGGSLRLSCEVSGFTLDYYNIGWFRQAPGKEREGVSSSSASGGSTYYADSVKGRFTISRDNAKNTVYLQMNSLKPEDTGVYYCAAYRGWHPSLDARVYDYWGQGTEVTVSS"
  UNITS: "µg/mL"
  MEASURED NUMBER: 0.015
- BINDER: "chimeric nanobody 3-D7 (Fc fusion, Human-alpaca chimeric antibody (VHH on hIgG1 Fc); Only the VHH is tied to the tested molecule; 37-39 exist for 3-D7-FC1/FC2/FC3; also called original antibody 3-D7) VHH: QRQLVESGGGLVQPGGSLRLSCAASGFLLDYYVIGWFRQAPGKEREGVSCISGSDRSTYYADSVKGRFTISRDNAKNTVYLQMNSLKPEDTAVYFCAADPSPVTVQAMCLPRFPVPYWGQGTQVTVST"
  UNITS: "µg/mL"
  MEASURED NUMBER: 0.116
- BINDER: "chimeric nanobody 4-D04 (Fc fusion, Human-alpaca chimeric antibody) VHH: QLQLVESGGGLVQPGGSLRLSCAASGFTLDYYNIGWFRQAPGKEREGVSCISSSEGSTYYADSVKGRFTISRDNAKNTVYLQMNSLKPEDTAVYYCAADRYYYCSLHVSQYDYWGQGTLVTVSS"
  UNITS: "µg/mL"
  MEASURED NUMBER: 0.067

Challenge: Item chimeric nanobody 4-B02 (Fc fusion, Human-alpaca chimeric antibody) VHH: EVQLVESGGGLVQPGGSLRLSCAASGFPLDYYSIGWFRQAPGKEREGVSCIGSSDGSTYYADSVKGRFTISRDNAENTVWLQMNSLKPEDTAVYYCAALKYYYCSGHEAIYDYWGQGTQVTVSG has what recorded EC50?
Response given: 0.061
